Source of measurements: patent US5646173A

Here, each record is paired with measured pKi data.
Target: 5HT2C receptor (Rattus norvegicus)
Sequence (P08909 33-460): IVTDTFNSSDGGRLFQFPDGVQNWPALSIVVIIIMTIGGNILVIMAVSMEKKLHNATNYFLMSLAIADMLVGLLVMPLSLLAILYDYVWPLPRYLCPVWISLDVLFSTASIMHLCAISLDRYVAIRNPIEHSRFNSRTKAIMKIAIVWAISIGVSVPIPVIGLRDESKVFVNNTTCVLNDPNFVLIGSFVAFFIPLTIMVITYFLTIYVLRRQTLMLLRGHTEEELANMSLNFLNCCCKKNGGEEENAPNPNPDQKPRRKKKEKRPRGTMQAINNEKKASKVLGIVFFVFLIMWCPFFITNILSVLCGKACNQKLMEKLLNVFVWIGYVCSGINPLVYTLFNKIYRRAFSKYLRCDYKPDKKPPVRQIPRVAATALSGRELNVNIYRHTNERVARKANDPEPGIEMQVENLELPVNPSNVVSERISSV
Test: [3H]-5-HT binding assay (Method II b)
Design: expressed in transfected cells; host or cells: clonal 5-HT1C cell line
Scale: pKi equals -log10([C]), with [C] in mol/L.

INSERT INTO measurements (compound, assayresult) VALUES
  ('CCc1ccc2c(c1)-c1c(ccn1C[C@H](C)N)C2', 7.74),
  ('Cc1ccc2c(c1)-c1c(ccn1C[C@H](C)N)C2(C)C.O=C(O)/C=C/C(=O)O', 8.49);

Can you share its pKi? I mean this compound: C[C@H](N)Cn1ccc2c1-c1cc(F)ccc1C2(C)C
8.29

Can you share its pKi? I mean this compound: C[C@H](N)Cn1ccc2c1-c1cc(-c3ccccc3)ccc1C2
7.78

Can you share its pKi? I mean this compound: Cc1cccc2c1Cc1ccn(CC(C)N)c1-2 (racemic)
6.97

* * *

Here, each record is paired with measured Ki data.
Target: human-5HT1A receptors (Homo sapiens, UniProt P08908)
Construct: expressed in transfected cells; host or cells: mouse 3T3 cells
Sequence (P08908 whole entry): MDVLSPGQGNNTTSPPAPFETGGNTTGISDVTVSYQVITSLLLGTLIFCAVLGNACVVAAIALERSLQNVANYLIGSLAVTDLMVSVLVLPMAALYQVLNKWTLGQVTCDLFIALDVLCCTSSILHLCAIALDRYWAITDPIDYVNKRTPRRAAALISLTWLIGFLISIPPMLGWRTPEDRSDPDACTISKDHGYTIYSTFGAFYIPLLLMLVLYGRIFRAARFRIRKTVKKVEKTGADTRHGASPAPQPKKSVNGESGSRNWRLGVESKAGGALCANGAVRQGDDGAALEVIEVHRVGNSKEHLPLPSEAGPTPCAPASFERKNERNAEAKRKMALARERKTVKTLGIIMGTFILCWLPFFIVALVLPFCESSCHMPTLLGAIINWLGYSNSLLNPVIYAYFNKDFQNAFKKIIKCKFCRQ
Test: [3H]-5-HT displacement on recombinant human 5HT1A receptors expressed in 3T3 cells of mice (Method II a)
Format: binding
Source text: [L] is the concentration of ligand and the KD value is the dissociation constant of the ligand.
Provide only the numeric value, understood in µM.

Recorded Ki, per entry:
INSERT INTO assay_data (molecule, targetorsystem, observable, assayresult) VALUES
  ('COc1ccc2c(c1)-c1c(ccn1C[C@H](C)N)C2(C)C.O=C(O)/C=C/C(=O)O', 'human-5HT1A receptors (Homo sapiens, UniProt P08908)', 'Ki', 4.07),
  ('Cc1ccc2c(c1)-c1c(ccn1C[C@H](C)N)C2(C)C.O=C(O)/C=C/C(=O)O', 'human-5HT1A receptors (Homo sapiens, UniProt P08908)', 'Ki', 2.19),
  ('CC(N)Cn1ccc2c1-c1cccc(Cl)c1C2 (racemic)', 'human-5HT1A receptors (Homo sapiens, UniProt P08908)', 'Ki', 4.79),
  ('CCc1ccc2c(c1)-c1c(ccn1C[C@H](C)N)C2(C)C', 'human-5HT1A receptors (Homo sapiens, UniProt P08908)', 'Ki', 4.57);

Can you share its Ki? I mean this molecule: COc1cc2c(cc1Cl)C(C)(C)c1ccn(C[C@H](C)N)c1-2
5.62

* * *

Molecular target: 5HT2A receptor (Rattus norvegicus)
Construct: from tissue; host or cells: rat frontal cortex membranes (inferred from the cited method)
Sequence (P14842 whole entry): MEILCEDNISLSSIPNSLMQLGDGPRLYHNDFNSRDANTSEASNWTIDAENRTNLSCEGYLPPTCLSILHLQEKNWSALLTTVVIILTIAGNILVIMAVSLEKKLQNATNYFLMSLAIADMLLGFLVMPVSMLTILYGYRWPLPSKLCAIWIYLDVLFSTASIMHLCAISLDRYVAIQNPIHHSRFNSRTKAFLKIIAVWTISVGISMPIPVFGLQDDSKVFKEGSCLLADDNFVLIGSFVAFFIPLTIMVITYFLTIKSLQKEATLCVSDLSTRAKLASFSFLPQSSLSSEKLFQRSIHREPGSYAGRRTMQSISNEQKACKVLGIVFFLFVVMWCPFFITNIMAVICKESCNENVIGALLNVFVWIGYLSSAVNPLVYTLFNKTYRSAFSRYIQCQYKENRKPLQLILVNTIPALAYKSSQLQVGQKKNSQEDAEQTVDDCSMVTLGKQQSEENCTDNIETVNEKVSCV
Assay: biochemical
Format: binding
Procedure: The binding of the compounds of formula I in accordance with the invention to serotonin receptors was determined in vitro by standard methods. The preparations were investigated in accordance with the assays given hereinafter: c) For the binding to the 5HT2A receptor in accordance with the ^3 H-ketanserine binding assay according to the method of J. E. Leysen, Molecular Pharmacology 21, 301-304 (1981).
pIC50: −log10 of the molar value.
Label not met if pIC50 falls below 6; label met in every other case.

INSERT INTO measurements (compound, cat) VALUES
  ('CC(N)Cn1ccc2c1-c1ccccc1OC2 (racemic) [Example 34]', 'not met'),
  ('COc1ccc2c(c1)-c1c(ccn1CCN)C2 [Example 23]', 'not met'),
  ('COc1ccc2c(c1)-c1c(ccn1C[C@@H](C)N)CC2 [Example 30]', 'met');

Tell me whether pIC50 is at least 6 here: Clc1cccc(N2CCNCC2)c1 [mCPP, reference compound]
met

Tell me whether pIC50 is at least 6 here: COc1ccc2c(c1)-c1c(ccn1C[C@H](C)N)CC2.O=C(O)/C=C/C(=O)O [Example 5]
met
